# target-desc: aprataxin FHA domain K38A (residues 1-105)
# assay-details: ITC; peptide injected (30 x 10 ul) into FHA domain in the cell; 22 °C; 50 mM HEPES pH 7.5, 150 mM NaCl, 5 mM β-mercaptoethanol; XRCC1 peptides 1 mM into 100 μM protein, XRCC4 peptides 300 μM into 30 μM protein; single-site binding model
Square brackets hold non-standard residues; d marks the D form. Ends that are not written are not given here. pT = C[C@@H](OP(=O)(O)O)[C@H](N)C(=O)O; pS = N[C@@H](COP(=O)(O)O)C(=O)O
measured-endpoint: fold decrease in binding relative to the wild-type (fold)
Supply the numeric figure in fold, leaving out any unit text.

Exercise: Reported fold decrease in binding relative to the wild-type, binder YAG[pS][pT]DEN[pT]DSEEHQ-NH2 (N-terminus assumed; SMILES C[C@H](NC(=O)[C@@H](N)Cc1ccc(O)cc1)C(=O)NCC(=O)N[C@@H](COP(=O)(O)O)C(=O)N[C@H](C(=O)N[C@@H](CC(=O)O)C(=O)N[C@@H](CCC(=O)O)C(=O)N[C@@H](CC(N)=O)C(=O)N[C@H](C(=O)N[C@@H](CC(=O)O)C(=O)N[C@@H](CO)C(=O)N[C@@H](CCC(=O)O)C(=O)N[C@@H](CCC(=O)O)C(=O)N[C@@H](Cc1c[nH]cn1)C(=O)N[C@@H](CCC(N)=O)C(N)=O)[C@@H](C)OP(=O)(O)O)[C@@H](C)OP(=O)(O)O) [XRCC1 515-529 peptide phosphorylated on Ser518, Thr519 and Thr523] : ____
Solution: 8.8
